Recorded values, source paper PMC2920546.

assay: Pharmacokinetics and tissue distribution in nude mice; type: in vivo; details: female, nude (nu/nu), mouse, heart, IV 5 mg/kg
MEASURED_PROPERTY: half-life (min)

• O=C1C(NCc2ccccc2)=CC2=NCCc3c[nH]c1c32 [BA-TPQ] = 5.4

* * *

test: Pharmacokinetics and tissue distribution in nude mice; format: in vivo; conditions: female, nude (nu/nu), mouse, liver, IV 5 mg/kg
MEASURED_PROPERTY: AUC (ng·h/mL)

• O=C1C(NCc2ccccc2)=CC2=NCCc3c[nH]c1c32 = 710

* * *

assay: Pharmacokinetics and tissue distribution in CD-1 mice; type: in vivo; conditions: female, mouse, heart, IV 5 mg/kg
MEASURED_PROPERTY: half-life

* O=C1C(NCc2ccccc2)=CC2=NCCc3c[nH]c1c32 [BA-TPQ] | 7.8 min

* * *

test: Pharmacokinetics and tissue distribution in nude mice; type: in vivo; details: female, nude (nu/nu), mouse, liver, IP 10 mg/kg
MEASURED_PROPERTY: Tmax (min)

• O=C1C(NCc2ccccc2)=CC2=NCCc3c[nH]c1c32 = 4.8

* * *

assay: Pharmacokinetics and tissue distribution in CD-1 mice; format: in vivo; conditions: female, mouse, brain, IP 10 mg/kg
MEASURED_PROPERTY: AUC (ng·h/mL)

* O=C1C(NCc2ccccc2)=CC2=NCCc3c[nH]c1c32 | 190

* * *

test: Pharmacokinetics and tissue distribution in nude mice; format: in vivo; conditions: female, nude (nu/nu), mouse, kidneys, IP 10 mg/kg
MEASURED_PROPERTY: Cmax

- O=C1C(NCc2ccccc2)=CC2=NCCc3c[nH]c1c32: 10800 ng/mL

* * *

assay: Pharmacokinetics and tissue distribution in CD-1 mice; type: in vivo; settings: female, mouse, brain, IV 5 mg/kg
MEASURED_PROPERTY: clearance

* O=C1C(NCc2ccccc2)=CC2=NCCc3c[nH]c1c32 | 2630 mL/min/kg

* * *

assay: Pharmacokinetics and tissue distribution in nude mice; format: in vivo; conditions: female, nude (nu/nu), mouse, brain, IV 5 mg/kg
MEASURED_PROPERTY: Cmax (ng/mL)

* O=C1C(NCc2ccccc2)=CC2=NCCc3c[nH]c1c32 [BA-TPQ] | 620

* * *

experiment: Pharmacokinetics and tissue distribution in nude mice; assay type: in vivo; conditions: female, nude (nu/nu), mouse, heart, IP 10 mg/kg
MEASURED_PROPERTY: half-life

• O=C1C(NCc2ccccc2)=CC2=NCCc3c[nH]c1c32 = 30 min

* * *

test: Pharmacokinetics and tissue distribution in CD-1 mice; type: in vivo; conditions: female, mouse, liver, IP 10 mg/kg
MEASURED_PROPERTY: AUC (ng·h/mL)

- O=C1C(NCc2ccccc2)=CC2=NCCc3c[nH]c1c32 [BA-TPQ]: 150

* * *

assay: Pharmacokinetics and tissue distribution in nude mice; type: in vivo; conditions: female, nude (nu/nu), mouse, spleen, IV 5 mg/kg
MEASURED_PROPERTY: Cmax (ng/mL)

- O=C1C(NCc2ccccc2)=CC2=NCCc3c[nH]c1c32 [BA-TPQ]: 11000

* * *

Experiment: Pharmacokinetics and tissue distribution in CD-1 mice
Type: in vivo
Settings: female, ICR/CD-1, mouse, lungs, IP 10 mg/kg
Protocol: Female ICR/CD-1 (18–20 g) mice were purchased from Harlan Laboratories (Indianapolis, IN), and female nude mice (nu/nu; 4–6 weeks) were purchased from Frederick Cancer Research and Development Center (Frederick, MD). […] CD-1 and nude mice were randomly divided into groups of three, and were dosed either intravenously (5 mg/kg) or intraperitoneally (10 mg/kg) with BA-TPQ in PEG 400:ethanol:0.9% saline (57.1%:14.3%:28.6%). […] The total urine was determined as the amount from the urine plus washes 1 and 2. […]
MEASURED_PROPERTY: half-life (min)

* O=C1C(NCc2ccccc2)=CC2=NCCc3c[nH]c1c32 | 30

* * *

experiment: Pharmacokinetics and tissue distribution in CD-1 mice; format: in vivo; conditions: female, mouse, heart, IP 10 mg/kg
MEASURED_PROPERTY: half-life

* O=C1C(NCc2ccccc2)=CC2=NCCc3c[nH]c1c32 | 42.6 min

* * *

assay: Pharmacokinetics and tissue distribution in CD-1 mice; type: in vivo; conditions: female, mouse, spleen, IP 10 mg/kg
MEASURED_PROPERTY: half-life (min)

- O=C1C(NCc2ccccc2)=CC2=NCCc3c[nH]c1c32: 24.6

* * *

experiment: Pharmacokinetics and tissue distribution in nude mice; assay type: in vivo; settings: female, nude (nu/nu), mouse, liver, IP 10 mg/kg
MEASURED_PROPERTY: half-life

* O=C1C(NCc2ccccc2)=CC2=NCCc3c[nH]c1c32 | 31.8 min

* * *

test: Pharmacokinetics and tissue distribution in nude mice; type: in vivo; details: female, nude (nu/nu), mouse, liver, IP 10 mg/kg
MEASURED_PROPERTY: Cmax

* O=C1C(NCc2ccccc2)=CC2=NCCc3c[nH]c1c32 [BA-TPQ] | 4560 ng/mL

* * *

test: Pharmacokinetics and tissue distribution in nude mice; format: in vivo; details: female, nude (nu/nu), mouse, plasma, IP 10 mg/kg
MEASURED_PROPERTY: Cmax

• O=C1C(NCc2ccccc2)=CC2=NCCc3c[nH]c1c32 [BA-TPQ] = 220 ng/mL

* * *

assay: Pharmacokinetics and tissue distribution in nude mice; type: in vivo; conditions: female, nude (nu/nu), mouse, lungs, IV 5 mg/kg
MEASURED_PROPERTY: half-life (min)

• O=C1C(NCc2ccccc2)=CC2=NCCc3c[nH]c1c32 = 21

* * *

test: Pharmacokinetics and tissue distribution in nude mice; format: in vivo; conditions: female, nude (nu/nu), mouse, brain, IV 5 mg/kg
MEASURED_PROPERTY: clearance (mL/min/kg)

• O=C1C(NCc2ccccc2)=CC2=NCCc3c[nH]c1c32 = 1730

* * *

assay: Pharmacokinetics and tissue distribution in nude mice; format: in vivo; conditions: female, nude (nu/nu), mouse, spleen, IV 5 mg/kg
MEASURED_PROPERTY: half-life (min)

* O=C1C(NCc2ccccc2)=CC2=NCCc3c[nH]c1c32 | 18.6

* * *

assay: Pharmacokinetics and tissue distribution in CD-1 mice; assay type: in vivo; details: female, mouse, plasma, IV 5 mg/kg
MEASURED_PROPERTY: AUC (ng·h/mL)

- O=C1C(NCc2ccccc2)=CC2=NCCc3c[nH]c1c32: 70

* * *

test: Pharmacokinetics and tissue distribution in CD-1 mice; type: in vivo; settings: female, mouse, kidneys, IP 10 mg/kg
MEASURED_PROPERTY: AUC (ng·h/mL)

- O=C1C(NCc2ccccc2)=CC2=NCCc3c[nH]c1c32: 8060

* * *

Assay: Pharmacokinetics and tissue distribution in CD-1 mice
Format: in vivo
Settings: female, mouse, spleen, IV 5 mg/kg
Method: Female ICR/CD-1 (18–20 g) mice were purchased from Harlan Laboratories (Indianapolis, IN), and female nude mice (nu/nu; 4–6 weeks) were purchased from Frederick Cancer Research and Development Center (Frederick, MD). […] CD-1 and nude mice were randomly divided into groups of three, and were dosed either intravenously (5 mg/kg) or intraperitoneally (10 mg/kg) with BA-TPQ in PEG 400:ethanol:0.9% saline (57.1%:14.3%:28.6%). […] The total urine was determined as the amount from the urine plus washes 1 and 2. […]
MEASURED_PROPERTY: Cmax (ng/mL)

- O=C1C(NCc2ccccc2)=CC2=NCCc3c[nH]c1c32: 4590

* * *

assay: Pharmacokinetics and tissue distribution in nude mice; format: in vivo; conditions: female, nude (nu/nu), mouse, brain, IP 10 mg/kg
MEASURED_PROPERTY: half-life (h)

* O=C1C(NCc2ccccc2)=CC2=NCCc3c[nH]c1c32 [BA-TPQ] | 4.06

* * *

test: Pharmacokinetics and tissue distribution in CD-1 mice; format: in vivo; settings: female, mouse, spleen, IP 10 mg/kg
MEASURED_PROPERTY: Tmax (min)

* O=C1C(NCc2ccccc2)=CC2=NCCc3c[nH]c1c32 | 4.8

* * *

Assay: Pharmacokinetics and tissue distribution in CD-1 mice
Format: in vivo
Details: female, mouse, spleen, IP 10 mg/kg
Procedure: Female ICR/CD-1 (18–20 g) mice were purchased from Harlan Laboratories (Indianapolis, IN), and female nude mice (nu/nu; 4–6 weeks) were purchased from Frederick Cancer Research and Development Center (Frederick, MD). […] CD-1 and nude mice were randomly divided into groups of three, and were dosed either intravenously (5 mg/kg) or intraperitoneally (10 mg/kg) with BA-TPQ in PEG 400:ethanol:0.9% saline (57.1%:14.3%:28.6%). […] The total urine was determined as the amount from the urine plus washes 1 and 2. […]
MEASURED_PROPERTY: AUC (ng·h/mL)

* O=C1C(NCc2ccccc2)=CC2=NCCc3c[nH]c1c32 | 11300
